The values you see were collected from patent US8143366B2.

molecular target: rabbit liver carboxylesterase (Oryctolagus cuniculus); assay: in vitro; details: purified rabbit liver carboxylesterase in PBS buffer, pH 7.4
Sequence (P12337 19-565): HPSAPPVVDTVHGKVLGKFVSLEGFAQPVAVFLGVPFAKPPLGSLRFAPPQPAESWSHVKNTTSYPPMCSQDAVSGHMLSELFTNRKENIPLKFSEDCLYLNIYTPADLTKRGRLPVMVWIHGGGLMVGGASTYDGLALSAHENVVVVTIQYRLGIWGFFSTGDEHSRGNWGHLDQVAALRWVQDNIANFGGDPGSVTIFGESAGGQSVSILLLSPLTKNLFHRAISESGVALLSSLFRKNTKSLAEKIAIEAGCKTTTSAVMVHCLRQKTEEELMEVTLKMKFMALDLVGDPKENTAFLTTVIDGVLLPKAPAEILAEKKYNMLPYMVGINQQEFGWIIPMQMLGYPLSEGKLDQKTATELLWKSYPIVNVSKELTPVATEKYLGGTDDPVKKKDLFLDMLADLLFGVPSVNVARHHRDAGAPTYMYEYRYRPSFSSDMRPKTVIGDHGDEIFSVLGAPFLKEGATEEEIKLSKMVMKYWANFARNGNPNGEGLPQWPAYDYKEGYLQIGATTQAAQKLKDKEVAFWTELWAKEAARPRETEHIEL
Observed property: half-life (h)
Respond numerically; units are h and should not be typed.

• COCCOCCOCCOCCNC(=O)c1ccc(OC(=O)N[C@@H](Cc2ccc(O)cc2)C(=O)NCC(=O)NCC(=O)N[C@@H](Cc2ccccc2)C(=O)N[C@@H](CC(C)C)C(=O)O)cc1 = 0.04
• COCCOCCOCCOCCNC(=O)c1cc(OC(=O)N[C@@H](Cc2ccc(O)cc2)C(=O)NCC(=O)NCC(=O)N[C@@H](Cc2ccccc2)C(=O)N[C@@H](CC(C)C)C(=O)O)cc(C(=O)NCCOCCOCCOCCOC)c1 = 0.03
• COCCOCCOCCOCCOCc1ccc(OC(=O)N[C@@H](Cc2ccc(O)cc2)C(=O)NCC(=O)NCC(=O)N[C@@H](Cc2ccccc2)C(=O)N[C@@H](CC(C)C)C(=O)O)cc1 = 1.4

Reported half-life for `COCCOCCOCCOCCOc1ccc(OC(=O)N[C@@H](Cc2ccc(O)cc2)C(=O)NCC(=O)NCC(=O)N[C@@H](Cc2ccccc2)C(=O)N[C@@H](CC(C)C)C(=O)O)cc1` was 6.9

Query `CCCCCCCCCCCCOCCOCCOCCOCCOCCOCCOCCOCCOc1ccc(OC(=O)N[C@@H](Cc2ccc(O)cc2)C(=O)NCC(=O)NCC(=O)N[C@@H](Cc2ccccc2)C(=O)N[C@@H](CC(C)C)C(=O)O)cc1` yields half-life of 10.4

Query COCCOCCOCCOCCOC(=O)NC(Cc1ccc(OC(=O)N[C@@H](Cc2ccc(O)cc2)C(=O)NCC(=O)NCC(=O)N[C@@H](Cc2ccccc2)C(=O)N[C@@H](CC(C)C)C(=O)O)cc1)C(=O)OC (stereo partly drawn) yields half-life of 1.3
